biological target: MAP/microtubule affinity-regulating kinase 3 (Homo sapiens); test: Inhibition of human MARK3 assessed as residual activity at 1 uM relative to control
recorded-endpoint: Activity

Req: Supply reported Activity belonging to this compound: `CNS(=O)(=O)c1ccc2c(c1)/C(=C/c1cn(C)c3ccc(OC)cc13)C(=O)N2`
Resp: 87%

Req: // Input: `COc1ccc2c(c1)c(/C=C1\C(=O)Nc3ccc(S(=O)(=O)N(C)C)cc31)cn2C` . Output its Activity only.
Resp: 97%

* * *

molecular target: Mitogen-activated protein kinase 8 (Homo sapiens) (UniProt P45983); test: Inhibition of human JNK1 assessed as residual activity at 1 uM relative to control
Sequence (P45983 whole entry): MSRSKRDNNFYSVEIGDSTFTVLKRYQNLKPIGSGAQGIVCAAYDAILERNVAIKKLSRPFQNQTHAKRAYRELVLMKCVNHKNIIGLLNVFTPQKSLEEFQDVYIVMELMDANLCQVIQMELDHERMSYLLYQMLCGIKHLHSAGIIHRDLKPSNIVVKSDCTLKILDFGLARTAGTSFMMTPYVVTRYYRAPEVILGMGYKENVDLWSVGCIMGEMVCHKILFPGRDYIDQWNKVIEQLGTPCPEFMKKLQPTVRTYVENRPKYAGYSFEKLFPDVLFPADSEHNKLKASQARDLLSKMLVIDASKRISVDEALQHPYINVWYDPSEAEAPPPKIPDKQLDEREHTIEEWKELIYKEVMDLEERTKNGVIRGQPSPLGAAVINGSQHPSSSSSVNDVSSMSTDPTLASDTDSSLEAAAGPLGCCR
Readings of Activity for the listed compounds

Previously resolved entries follow.
Cn1cc(/C=C2\C(=O)Nc3ccc(S(N)(=O)=O)cc32)c2ccccc21 ... 94%
CN(C)S(=O)(=O)c1ccc2c(c1)/C(=C/c1cn(C)c3ccc(O)cc13)C(=O)N2 ... 97%
COc1ccc2[nH]cc(/C=C3\C(=O)Nc4ccc(S(N)(=O)=O)cc43)c2c1 ... 87%
COc1ccc2c(c1)c(/C=C1\C(=O)Nc3ccc(S(=O)(=O)N(C)C)cc31)cn2C ... 100%
CNS(=O)(=O)c1ccc2c(c1)/C(=C/c1cn(C)c3ccc(OC)cc13)C(=O)N2 ... 112%

Next up:
Req: Note Activity for the compound shown: `COc1ccc2c(c1)c(/C=C1\C(=O)Nc3ccc(S(N)(=O)=O)cc31)cn2C`
Resp: 95%

* * *

molecular target: RAC-alpha serine/threonine-protein kinase (Homo sapiens); assay: Inhibition of human AKT1 (104 to 408 residues) assessed as residual activity at 0.1 uM relative to control
// reported Activity per item
API: value field is a number in %; no unit string.

Example results:
CN(C)S(=O)(=O)c1ccc2c(c1)/C(=C/c1cn(C)c3ccc(O)cc13)C(=O)N2 ... 105
COc1ccc2c(c1)c(/C=C1\C(=O)Nc3ccc(S(=O)(=O)N(C)C)cc31)cn2C ... 101
COc1ccc2c(c1)c(/C=C1\C(=O)Nc3ccc(S(N)(=O)=O)cc31)cn2C ... 92
COc1ccc2[nH]cc(/C=C3\C(=O)Nc4ccc(S(N)(=O)=O)cc43)c2c1 ... 115
CNS(=O)(=O)c1ccc2c(c1)/C(=C/c1cn(C)c3ccc(OC)cc13)C(=O)N2 ... 93

Kindly consider the entry below.
Req: Determine from records and report Activity for `Cn1cc(/C=C2\C(=O)Nc3ccc(S(N)(=O)=O)cc32)c2ccccc21`
Resp: 92

* * *

target: UniProtKB O00418; test: Inhibition of human EEF2K assessed as residual activity at 0.1 uM relative to control
Sequence (O00418 whole entry): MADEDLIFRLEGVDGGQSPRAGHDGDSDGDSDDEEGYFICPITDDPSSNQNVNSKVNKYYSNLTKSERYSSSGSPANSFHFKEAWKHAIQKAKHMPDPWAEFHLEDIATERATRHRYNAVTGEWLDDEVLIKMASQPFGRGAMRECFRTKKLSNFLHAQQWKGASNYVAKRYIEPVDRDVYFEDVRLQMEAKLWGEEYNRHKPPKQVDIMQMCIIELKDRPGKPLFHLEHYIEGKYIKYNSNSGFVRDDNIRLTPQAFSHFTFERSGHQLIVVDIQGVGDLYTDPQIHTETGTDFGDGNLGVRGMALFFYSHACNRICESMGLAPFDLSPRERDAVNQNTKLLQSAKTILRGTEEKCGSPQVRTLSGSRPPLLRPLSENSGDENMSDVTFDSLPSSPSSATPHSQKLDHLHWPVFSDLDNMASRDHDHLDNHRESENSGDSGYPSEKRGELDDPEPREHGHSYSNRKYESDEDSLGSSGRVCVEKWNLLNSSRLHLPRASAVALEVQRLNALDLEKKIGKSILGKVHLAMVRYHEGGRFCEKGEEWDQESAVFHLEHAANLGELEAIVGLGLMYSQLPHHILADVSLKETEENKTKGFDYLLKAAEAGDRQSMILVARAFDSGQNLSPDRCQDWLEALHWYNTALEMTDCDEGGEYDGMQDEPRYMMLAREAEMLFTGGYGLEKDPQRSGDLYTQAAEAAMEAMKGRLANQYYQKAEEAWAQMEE
Each item that follows carries a reported Activity.
Return type: number; implicit unit %.

COc1ccc2[nH]cc(/C=C3\C(=O)Nc4ccc(S(N)(=O)=O)cc43)c2c1 ... 107

Req: For the compound `COc1ccc2c(c1)c(/C=C1\C(=O)Nc3ccc(S(N)(=O)=O)cc31)cn2C` , give its measured Activity value.
Resp: 101

Req: Respond only with Activity recorded for `CNS(=O)(=O)c1ccc2c(c1)/C(=C/c1cn(C)c3ccc(OC)cc13)C(=O)N2`
Resp: 103

Req: Identify the reported Activity for the following entry. `CN(C)S(=O)(=O)c1ccc2c(c1)/C(=C/c1cn(C)c3ccc(O)cc13)C(=O)N2`
Resp: 97

Req: State its Activity: `COc1ccc2c(c1)c(/C=C1\C(=O)Nc3ccc(S(=O)(=O)N(C)C)cc31)cn2C`
Resp: 99

Req: Determine its reported Activity: `Cn1cc(/C=C2\C(=O)Nc3ccc(S(N)(=O)=O)cc32)c2ccccc21`
Resp: 99
